# Tested on: Hela
# Test: RT-CES cell proliferation inhibition, Hela
# Format: cell-based
# Experimental setup: Homo sapiens, 48 hrs, read-out: IC50 (48 hr)
Recorded endpoint: IC50 (nM)
Kindly provide the numeric value in nM only, without the unit symbol.

Requested field: IC50. Item: Br.CCOc1ccc(Nc2nc(-c3c(C)nc4sccn34)cs2)cc1 [Compound 27]
6.95

----------
# System: H460
# Test: RT-CES cell proliferation inhibition, H460
# Format: cell-based
# Experimental setup: Homo sapiens, NCI-H460; H460, 24 hrs after compound treatment; read-out: IC50 (24 hr)
# Description: The biological activity of compounds disclosed herein was monitored and profiled using the Real-Time Cell Electronic Sensing (RT-CES®) system from ACEA Biosciences, Inc. The RT-CES system utilizes cell-substrate impedance technology to monitor cellular behavior inside tissue culture wells in a microtiter plate format. […] To quantify cell status based on the measured cell-electrode impedance, a parameter termed Cell Index is derived. […]
Recorded endpoint: IC50 (µM)
Kindly provide the numeric value in µM only, without the unit symbol.

Requested field: IC50. Item: Br.CCOc1ccc(Nc2nc(-c3c(C)nc4sccn34)cs2)cc1 [Compound 27]
0.0123

----------
# System: PC3
# Test: RT-CES cell proliferation inhibition, PC3
# Format: cell-based
# Experimental setup: Homo sapiens, PC-3; PC3, 24 hrs; read-out: IC50 (24 hr)
Recorded endpoint: IC50 (nM)
Kindly provide the numeric value in nM only, without the unit symbol.

Requested field: IC50. Item: Br.CCOc1ccc(Nc2nc(-c3c(C)nc4sccn34)cs2)cc1
10.9

----------
# System: MCF7
# Test: RT-CES cell proliferation inhibition, MCF7
# Type: cell-based
# Experimental setup: Homo sapiens; MCF7, 24 hrs; read-out: IC50 (24 hr)
# Text: The biological activity of compounds disclosed herein was monitored and profiled using the Real-Time Cell Electronic Sensing (RT-CES®) system from ACEA Biosciences, Inc. The RT-CES system utilizes cell-substrate impedance technology to monitor cellular behavior inside tissue culture wells in a microtiter plate format. […] To quantify cell status based on the measured cell-electrode impedance, a parameter termed Cell Index is derived. […]
pIC50: −log10 of the molar value.
Recorded endpoint: pIC50

Report pIC50 for Br.CCOc1ccc(Nc2nc(-c3c(C)nc4sccn34)cs2)cc1 tested on MCF7.
< 6.70

----------
# Tested on: PC3
# Test: RT-CES cell proliferation inhibition, PC3
# Assay type: cell-based
# Experimental setup: Homo sapiens, PC-3; PC3, 48 hrs; read-out: IC50 (48 hr)
Recorded endpoint: IC50
In your response, put the unit directly after the numeric value.

Report IC50 for Br.CCOc1ccc(Nc2nc(-c3c(C)nc4sccn34)cs2)cc1 [Compound 27] tested on PC3.
5.37 nM

----------
# Test system: MDCK
# Test: RT-CES cell proliferation inhibition, MDCK
# Type: cell-based, Monkey
# Experimental setup: Canis lupus familiaris, 24 hrs, read-out: IC50 (24 hr)
Recorded endpoint: pIC50
Conceptually, pIC50 converts a concentration in mol/L into minus its log10.

Report pIC50 for Br.CCOc1ccc(Nc2nc(-c3c(C)nc4sccn34)cs2)cc1 tested on MDCK.
6.03

----------
# Tested on: Jurkat
# Test: RT-CES cell proliferation inhibition, Jurkat
# Type: cell-based
# Experimental setup: Homo sapiens, 24 hrs
Recorded endpoint: IC50 (µM)
Kindly provide the numeric value in µM only, without the unit symbol.

Report IC50 for Br.CCOc1ccc(Nc2nc(-c3c(C)nc4sccn34)cs2)cc1 tested on Jurkat.
0.0454

----------
# System: H460
# Test: RT-CES cell proliferation inhibition, H460
# Assay type: cell-based
# Experimental setup: Homo sapiens, NCI-H460; H460, 48 hrs after compound treatment; read-out: IC50 (48 hr)
# Source text: The biological activity of compounds disclosed herein was monitored and profiled using the Real-Time Cell Electronic Sensing (RT-CES®) system from ACEA Biosciences, Inc. The RT-CES system utilizes cell-substrate impedance technology to monitor cellular behavior inside tissue culture wells in a microtiter plate format. […] To quantify cell status based on the measured cell-electrode impedance, a parameter termed Cell Index is derived. […]
Recorded endpoint: pIC50
Conceptually, pIC50 converts a concentration in mol/L into minus its log10.

Requested field: pIC50. Item: Br.CCOc1ccc(Nc2nc(-c3c(C)nc4sccn34)cs2)cc1 [Compound 27]
7.80
